TARGET OR SYSTEM: T1, Fc protein
T1 construct: counter-screen antigen for the Fc moiety of PDL1-Fc
EXPERIMENT NOTES: ELISA, Fc protein coated, 100 ng dAb per well
Provide the recorded OD (against Fc) for the entries that follow.

Task item: Bench note: what OD (against Fc) did PDL1-69 dAb (VHH, camel heavy chain single domain antibody expressed in E. coli, purified on nickel; also called antibody No. 69; not shown: His tag from expression vector PET32b) VHH: QVQLQESGGGSVQAGGSLRLSCAVQRNISSSYCMAWFRQAPGKQRERVDKILTTPGNTYLADSVKGRFTISQNNAKSTVYLQMNSLKPEDTAMYYCAADSFQKPTCTVVASWPAFQYWGQGTQVTVSS show?
Reply: 0.165 OD (405 nm)

Task item: Which OD (against Fc) reading was recorded for the binder PDL1-87 dAb (VHH, camel heavy chain single domain antibody expressed in E. coli, purified on nickel; also called antibody No. 87; not shown: His tag from expression vector PET32b) VHH: QVQLQESGGGSVQAGGSLKLSCAASGYIFSSCGMGWYRQAPGKERELVSTISSDGTTSYADSVKGRFTISQDNAKNTLYLQMNSLKTEDTAVYYCVADCPPIPEFTSCSGGYCLSGDYWGQGTQVTVSS ?
Reply: 0.124 OD (405 nm)

Task item: What value of OD (against Fc) has been recorded for this entry: PDL1-27 dAb (VHH, camel heavy chain single domain antibody expressed in E. coli, purified on nickel; also called antibody No. 27; not shown: His tag from expression vector PET32b) VHH: QVQLQESGGGSVQAGGSLRLSCAASGNISSRRCMAWFRQAPGKERERVANILTTTGNTYLADSVKGRFTISQNNAKSTVYLQMNSLKPEDTAMYYCAADSFHDPTCTVVASSGAFQYWGQGTQVTVSS
Reply: 0.08 OD (405 nm)

Task item: Record request: OD (against Fc) value, item PDL1-38 dAb (VHH, camel heavy chain single domain antibody expressed in E. coli, purified on nickel; also called antibody No. 38; not shown: His tag from expression vector PET32b) VHH: QVQLQESGGGSVQAGGSLRLSCAVSGFISSRRCMGWFRQAPGKERVGVANITGTGNTYLADSVKGRFTISQNNAKSTVYLQMNSLKPEDTAMYYCAADSFPTCTVVASSGAFQYWGQGTQVTVSS
Reply: 0.065 OD (405 nm)

Source: patent US20180327494A1
